Biological target: T1, NMDAR2B immunogen peptide, free (YKDAHEKDDF-amide) (human)
T1 construct: Free form: no radiolabel and no further conjugation; also called free NMDAR2B immunogen peptide; free peptide
T1 peptide: YKDAHEKDDF-NH2
Assay: competition ELISA against peptide coupled to biotinylated BSA
Ends that are not written are not given here.

[
  {
    "BINDER": "Fab10 (Fab, V domains shown, also called Ab10 (IgG form with the same VH and VL)) VH: EVQLVESGGGLVQPGGSLRLSCAASGFNLYSSYMHWVRQAPGKGLEWVASISSSYGYTYYADSVKGRFTISADTSKNTAYLQMNSLRAEDTAVYYCARTVRGSKKPYFSGWAMDYWGQGTLVTVSS VL: DIQMTQSPSSLSASVGDRVTITCRASQSVSSAVAWYQQKPGKAPKLLIYSASSLYSGVPSRFSGSRSGTDFTLTISSLQPEDFATYYCQQGSYLITFGQGTKVEIK",
    "binding result": "no binding"
  },
  {
    "BINDER": "Fab6 (Fab, V domains shown, also called Ab6 (IgG form with the same VH and VL)) VH: EVQLVESGGGLVQPGGSLRLSCAASGFNIYSSYIHWVRQAPGKGLEWVASISSSYGYTYYADSVKGRFTISADTSKNTAYLQMNSLRAEDTAVYYCARTVRGSKKPYFSGWAMDYWGQGTLVTVSS VL: DIQMTQSPSSLSASVGDRVTITCRASQSVSSAVAWYQQKPGKAPKLLIYSASSLYSGVPSRFSGSRSGTDFTLTISSLQPEDFATYYCQQGGSLITFGQGTKVEIK",
    "binding result": "no binding"
  },
  {
    "BINDER": "Fab4 (Fab, V domains shown, also called Ab4 (IgG form with the same VH and VL)) VH: EVQLVESGGGLVQPGGSLRLSCAASGFNLYYYSIHWVRQAPGKGLEWVAYISSYYGYTYYADSVKGRFTISADTSKNTAYLQMNSLRAEDTAVYYCARYYPGGWHAFDYWGQGTLVTVSS VL: DIQMTQSPSSLSASVGDRVTITCRASQSVSSAVAWYQQKPGKAPKLLIYSASSLYSGVPSRFSGSRSGTDFTLTISSLQPEDFATYYCQQYYGYGYPITFGQGTKVEIK",
    "binding result": "no binding"
  }
]
